Value source: patent US10150737B2

This listing pairs molecules with measured log P.
Test Description: logP determination by HPLC on a reversed-phase column (C18)
Type: physicochemical
Applied Conditions: HPLC-MS, reversed-phase column (C18); Table I-T3
Write the number on its own, no unit after it.

Worked cases, log P given:
* CNc1ncc(-c2cnn(-c3c(Cl)cc(C(F)(C(F)(F)F)C(F)(F)F)cc3Cl)c2)cc1C(=O)NC1CC1 [I-T3-136] | 3.5
* Cc1cc(C(F)(C(F)(F)F)C(F)(F)F)cc(C(F)(F)F)c1-n1cc(-c2cnc(Cl)c(C(=O)NCC3(C#N)CC3)c2)cn1 [I-T3-197] | 4.0
* N#Cc1cc(C(F)(C(F)(F)F)C(F)(F)F)cc(Cl)c1-n1cc(-c2cnc(Cl)c(C(=O)NC3CC3)c2)cn1 [I-T3-205] | 3.5

Switching to the query record.
Answer with the recorded log P of N#CC1(NC(=O)c2cc(-c3cnn(-c4ncc(C(F)(F)F)cc4C(F)(F)F)c3)ccc2Cl)CC1 [I-T3-149] only.
3.5
